# experimental system: SapM (Mycobacterium tuberculosis)
# Construct: made in house; host or cells: Escherichia coli C41 (DE3)
# Sequence (O53361 44-299): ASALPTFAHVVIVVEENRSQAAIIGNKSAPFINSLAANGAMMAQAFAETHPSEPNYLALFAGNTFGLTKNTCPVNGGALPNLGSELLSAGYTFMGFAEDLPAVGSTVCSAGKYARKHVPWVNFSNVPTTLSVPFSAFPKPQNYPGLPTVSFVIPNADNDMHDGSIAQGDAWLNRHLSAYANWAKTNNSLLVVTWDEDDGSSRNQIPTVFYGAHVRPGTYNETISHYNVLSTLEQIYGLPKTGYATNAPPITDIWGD
# run description: biochemical
# Format: biochemical
# reported conditions: compounds at 100 µM; read-out: inhibition of SapM activity (reduction in SA)
metric name: inhibition at 100 µM

Worked cases, answers included:
inhibition at 100 µM lookup needed for Cc1cc(O)c2c(c1)C(=O)c1cc(O)cc(O)c1C2=O [Compound 25, Emodin] , thanks.
~30%

Item O=C(O)c1cc(O)c(O)c(O)c1 [Compound 29, Gallic acid] has what recorded inhibition at 100 µM?
~70%

Which inhibition at 100 µM is listed for Oc1cc(O)c2c(c1)O[C@@H](c1cc(O)c(O)c(O)c1)[C@H](O)C2 [Compound 30, (−)-Gallocatechin] ?
~40%

More entries:
Give its inhibition at 100 µM value. Item: CC(C)(C)c1cc(/C=C(\C#N)C(N)=S)cc(C(C)(C)C)c1O [Compound 8, Tyrphostin AG 879]
< 21%

Tell me the measured inhibition at 100 µM of N#CC(C#N)=Cc1ccc(O)c(O)c1 [Compound 7, Tyrphostin 23] , please.
30 to 50%
